Recorded IC50, one value per entry.
subject of test: Neuraminidase (Influenza A virus (A/Puerto Rico/8/1934(H1N1)), UniProt P03468)
Sequence (P03468 whole entry): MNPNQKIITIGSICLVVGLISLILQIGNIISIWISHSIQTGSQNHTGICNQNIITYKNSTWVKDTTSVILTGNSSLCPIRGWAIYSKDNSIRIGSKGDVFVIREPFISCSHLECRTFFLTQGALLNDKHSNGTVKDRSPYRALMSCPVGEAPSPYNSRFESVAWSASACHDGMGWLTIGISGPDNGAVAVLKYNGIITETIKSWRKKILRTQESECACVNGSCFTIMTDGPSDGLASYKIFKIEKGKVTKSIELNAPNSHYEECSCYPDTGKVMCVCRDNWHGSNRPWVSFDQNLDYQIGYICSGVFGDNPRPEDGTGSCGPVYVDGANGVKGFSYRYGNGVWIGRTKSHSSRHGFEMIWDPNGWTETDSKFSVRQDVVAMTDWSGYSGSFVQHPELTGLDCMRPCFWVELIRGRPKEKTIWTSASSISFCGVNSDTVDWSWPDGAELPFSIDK
method notes: Inhibition of Influenza A virus (H1N1) neuraminidase
Form entry: enter the amount, then its unit.

{"structure string": "O=C1/C(=C/c2ccc(Cl)cc2)Oc2ccccc21", "IC50": "45.4 µM"}

Q: Data request, read-out IC50, for O=c1cc(-c2cccc([N+](=O)[O-])c2)oc2ccccc12
Result: 15.4 µM

Q: Then what about the compound O=C1/C(=C/c2ccc([N+](=O)[O-])cc2)Oc2ccccc21 ?
Result: 41 µM

Q: # iterate: O=c1c(O)c(-c2ccc(O)c(O)c2)oc2cc(O)cc(O)c12
Result: 7.75 µM

Q: Next compound: COc1ccc(/C=C2\Oc3ccccc3C2=O)cc1
Result: 37.5 µM
